Source: patent US20120230991A1

System: A549 Human NSCLC Cell Lines
Assay: BrdU incorporation ELISA, relative cell proliferation of A549 cells, 48 hours
Type: cell-based
Settings: A549 Wild Type, 48 hours, BrdU assay
measurement-type: IC50 (µM)
Entry rule: numbers only, all in µM.

- N.N.O=C([O-])C1(C(=O)[O-])CCC1.[Pt+2]: 19.8

[ask] What value of IC50 has been recorded for this entry: N.N.[Cl][Pt][Cl] [Cispl, cisplatin]
[reply] 2.1

* * *

# pIC50 annotations
Tested on: A549 Human NSCLC Cell Lines
Assay: Relative cell numbers of A549 cells (wild type, shControl, Axl/Mer knockdown) after 48 hours of drug
Type: cell-based
Details: Homo sapiens, A549, 48 h, A549 Wild Type, 48 hours, relative cell number
Just the number, please; pIC50 means minus log10 of the concentration in mol/L.

• COc1cc([C@@H]2c3cc4c(cc3[C@@H](O[C@@H]3O[C@@H]5CO[C@@H](C)O[C@H]5[C@H](O)[C@H]3O)[C@H]3COC(=O)[C@H]23)OCO4)cc(OC)c1O [VP-16, etoposide] = 5.66

Okay, now this molecule:
[ask] Lab request: please report pIC50 under test system A549 Human NSCLC Cell Lines for COc1cccc2c1C(=O)c1c(O)c3c(c(O)c1C2=O)C[C@@](O)(C(=O)CO)C[C@@H]3O[C@H]1C[C@H](N)[C@H](O)[C@H](C)O1
[reply] 7.46

* * *

Tested on: A549 Human NSCLC Cell Lines
Assay: Relative cell numbers of A549 cells (wild type, shControl, Axl/Mer knockdown) after 48 hours of drug
Format: cell-based
Conditions: A549 shAxl8-G5 (Axl knockdown), 48 hours, relative cell number
measurement-type: pIC50
Scale for pIC50: -log10 of concentration given in mol/L; no unit attached.

* N.N.O=C([O-])C1(C(=O)[O-])CCC1.[Pt+2] | 5.04

# context switch: different molecule, same pIC50
[ask] # pIC50 lookup, item N.N.[Cl][Pt][Cl] [Cispl, cisplatin]
[reply] 6.29

* * *

System: A549 Human NSCLC Cell Lines
Assay: BrdU incorporation ELISA, relative cell proliferation of A549 cells, 48 hours
Type: cell-based
Settings: Homo sapiens, A549, 48 h, A549 shControl, 48 hours, BrdU assay
measurement-type: IC50 (nM)
Lab book: enter the figure in nM, no units written.

• COc1cccc2c1C(=O)c1c(O)c3c(c(O)c1C2=O)C[C@@](O)(C(=O)CO)C[C@@H]3O[C@H]1C[C@H](N)[C@H](O)[C@H](C)O1 = 51.1

[ask] Please look up its IC50: COc1cc([C@@H]2c3cc4c(cc3[C@@H](O[C@@H]3O[C@@H]5CO[C@@H](C)O[C@H]5[C@H](O)[C@H]3O)[C@H]3COC(=O)[C@H]23)OCO4)cc(OC)c1O [VP-16, etoposide]
[reply] 910
